# target: aldose reductase (Bos taurus, UniProt P16116)
# Construct: preparation of the enzyme from bovine lens; from tissue; host or cells: bovine lens
# assayNotes: In vitro inhibition of aldose reductase (modified Hayman and Kinoshita procedure, enzyme from bovine lens)
# Assay type: biochemical
# conditionLabel: 10^-6 M; read-out: % Inhibition in Vitro

compound | inhibition at 1 µM / %
COC(=O)c1ccc2c(c1)C1(CC(=O)NC1=O)N(C)C2=O (stereo not drawn) [Example 134] | 49
O=C1NC(=O)[C@@]2(CCOc3ccc(F)cc32)N1 [Sorbinil, reference compound] | 45
O=C1CC2(C(=O)N1)c1ccccc1S(=O)(=O)N2Cc1ccc(Br)cc1F (stereo not drawn) [Example 104] | 3
CN1C(=O)c2cc3ccccc3cc2C12CC(=O)NC2=O (stereo not drawn) [Example 124] | 82
CN1C(=O)c2cc(-c3ccccc3)ccc2C12CC(=O)NC2=O (stereo not drawn) [Example 136] | 81
Cc1cccc2c1C(=O)N(C)C21CC(=O)NC1=O (stereo not drawn) [Example 135] | 59
CN1C(=O)c2cc(Br)ccc2C12CC(=O)NC2=O (stereo not drawn) [Example 127] | 71
O=C1CC2(C(=O)N1)c1ccccc1C(=O)N2Cc1ccc(Br)cc1F (stereo not drawn) [Example 116] | 54
CN1C(=O)c2ccc([N+](=O)[O-])cc2C12CC(=O)NC2=O (stereo not drawn) [Example 132] | 77
